- System: Plasmodium berghei
- METHOD_SUMMARY: Screen against P. berghei liver stage (PbLuc), transformed with Luciferase, at 10uM
- Format: functional, HepG2
- APPLIED_CONDITIONS: tested at 10 uM
The campaign covered roughly 69,000 compounds. About 8,600 (12%) showed an effect of 50% or more. The entries come from a sample that favours strong results as a whole.
Consider the following partition of reported INHIBITION into named classes: category 1: < 20%; category 2: ≥ 20% and < 40%; category 3: ≥ 40%

Below are worked cases with known answers.
{"COMPOUND": "O=C(c1ccncc1F)N1Cc2nc(CN3CCCCC3)oc2C1", "TEST_SYSTEM": "Plasmodium berghei", "ASSIGNED_CATEGORY": "category 3"}
{"COMPOUND": "CN(C)Cc1nc2c(o1)CN(C(=O)c1ccncc1F)C2", "TEST_SYSTEM": "Plasmodium berghei", "ASSIGNED_CATEGORY": "category 2"}
{"COMPOUND": "O=C(c1ccc2[nH]ccc2c1)N1Cc2nc(CN3CCCC3)oc2C1", "TEST_SYSTEM": "Plasmodium berghei", "ASSIGNED_CATEGORY": "category 2"}
{"COMPOUND": "Cc1noc(NC(=O)c2ccc(F)cc2)n1", "TEST_SYSTEM": "Plasmodium berghei", "ASSIGNED_CATEGORY": "category 2"}
{"COMPOUND": "O=C(NCc1ccccc1)N1Cc2nc(COCC3CC3)oc2C1", "TEST_SYSTEM": "Plasmodium berghei", "ASSIGNED_CATEGORY": "category 3"}

input: Could you place O=C(c1ccc2[nH]ccc2c1)N1CCCSCC1CN1CCCC1 (centres undefined) in its proper category? Many thanks.
output: category 3

input: Could you place COc1cc(C(=O)Nc2nc(C)no2)cc(Cl)c1OC in its proper category? Many thanks.
output: category 3

input: Could you place COc1cc(C(=O)NS(=O)(=O)c2cccc(C#N)c2)cc(OC)c1Br in its proper category? Many thanks.
output: category 2

input: Could you place O=C(Cc1cccs1)N1Cc2nc(COCC3CC3)oc2C1 in its proper category? Many thanks.
output: category 1

input: Could you place CCN(CC)Cc1nc2c(o1)CN(C(=O)c1ccncc1F)C2 in its proper category? Many thanks.
output: category 1

input: Could you place CS(=O)(=O)NCCC1CCCN(Cc2ccccc2F)C1 (centres undefined) in its proper category? Many thanks.
output: category 3

input: Could you place O=C(c1ccc2c(c1)OCO2)N1CCCSCC1CN1CCCC1 (centres undefined) in its proper category? Many thanks.
output: category 1

input: Could you place COc1coc(CN2CCCC(CCc3ccccc3C)C2)cc1=O (centres undefined) in its proper category? Many thanks.
output: category 3

* * *

- Test system: Plasmodium berghei
- METHOD_SUMMARY: Screen against P. berghei liver stage (PbLuc), transformed with Luciferase, at 10uM
- Format: functional, HepG2
- APPLIED_CONDITIONS: tested at 10 uM
About 8,600 (12%) of roughly 69,000 compounds showed an effect of 50% or more. The list comes from a sample in which strong results are over-represented; it also holds close analogues and randomly drawn compounds.
VALUE_TYPE: INHIBITION (%)
Could you give me the number in %? Just the number is fine.

Worked examples, 8 compounds total:
{"COMPOUND": "COCCCNC(=O)Cc1cc(-c2ccc3c(c2)OCO3)on1", "MEASURED_VALUE": 65.7}
{"COMPOUND": "CCOC(=O)N1CCN(c2nc(NCCO)c3ccccc3n2)CC1", "MEASURED_VALUE": 6.54}
{"COMPOUND": "Cn1cc(CCNC(=O)CCc2ccc3c(c2)OCO3)cn1", "MEASURED_VALUE": 31.3}
{"COMPOUND": "CCOC(=O)N1CCN(c2nc(N)c3ccccc3n2)CC1", "MEASURED_VALUE": -90.8}
{"COMPOUND": "CC(C)(C)c1ccc(-n2ncc3c2CCCC3N)cc1 (configuration not stated)", "MEASURED_VALUE": 22.6}
{"COMPOUND": "CN(C)C(=O)c1nn(C)c2c1CN(Cc1cccs1)C2", "MEASURED_VALUE": -6.23}
{"COMPOUND": "COCCCNC(=O)Cc1cc(-c2ccc(Cl)cc2)on1", "MEASURED_VALUE": 53.7}
{"COMPOUND": "CCOC(=O)N1CCN(c2nc(NC)c3ccccc3n2)CC1", "MEASURED_VALUE": 45}

The reported INHIBITION of the compound Cc1ccc(-n2ncc3c2CCCC3N)cc1C (configuration not stated) was 33.7

The reported INHIBITION of the compound Cc1nn(C)c(C)c1C1CCCN1C(=O)c1nccnc1N (configuration not stated) was 12.7

The reported INHIBITION of the compound COCCCNC(=O)Cc1cc(-c2ccccc2)on1 was -34.3

The reported INHIBITION of the compound Cc1cc(C(=O)NCc2ccccn2)no1 was -1.88

* * *

- Test system: Plasmodium berghei
- METHOD_SUMMARY: Screen against P. berghei liver stage (PbLuc), transformed with Luciferase, at 10uM
- Type: functional, HepG2
- APPLIED_CONDITIONS: tested at 10 uM
About 8,600 (12%) of roughly 69,000 compounds showed an effect of 50% or more. The full list was thinned out, with strong results kept by preference.
VALUE_TYPE: INHIBITION (%)
Could you give me the number in %? Just the number is fine.

Worked examples, 6 compounds total:
{"COMPOUND": "CCOC(=O)N1C[C@@H]2CC[C@H]1CN(Cc1ccccc1)C2", "TEST_SYSTEM": "Plasmodium berghei", "INHIBITION / %": 12.8}
{"COMPOUND": "Cc1noc(C(C)C)c1C(=O)NCc1cccc(N(C)C)c1", "TEST_SYSTEM": "Plasmodium berghei", "INHIBITION / %": 6.14}
{"COMPOUND": "Cc1cc(NC(=O)NCCc2ccc(S(N)(=O)=O)cc2)n(C)n1", "TEST_SYSTEM": "Plasmodium berghei", "INHIBITION / %": -193}
{"COMPOUND": "Cc1cc(CNCc2c(C(C)C)nn(C)c2N2CCOCC2)no1", "TEST_SYSTEM": "Plasmodium berghei", "INHIBITION / %": 28.8}
{"COMPOUND": "COc1cc(N2C[C@H]3CCC[C@@H](CN4CCOCC4)[C@H]3C2)ncn1", "TEST_SYSTEM": "Plasmodium berghei", "INHIBITION / %": 73}
{"COMPOUND": "CN(C)c1cc(CNC(=O)Nc2nnc(C3CC3)s2)ccn1", "TEST_SYSTEM": "Plasmodium berghei", "INHIBITION / %": -27.8}

The reported INHIBITION of the compound CSc1ncccc1C(=O)N(CCO)Cc1ccccc1 was 21.4

The reported INHIBITION of the compound CC(c1cccc(S(N)(=O)=O)c1)N(C)CCc1ccccc1 (stereo unspecified) was 33.6

The reported INHIBITION of the compound Cc1ccc(C(=O)O)cc1CNC(=O)CN1CC(C)(C)[C@@](C)(O)C1 was 28.7

The reported INHIBITION of the compound COc1cccc(S(=O)(=O)CCN2CCn3c(C)nnc3C2)c1 was -17

The reported INHIBITION of the compound CN(Cc1ccco1)C(=O)CN1C(=O)c2cc(Cl)c(Cl)cc2C1=O was 39.2

* * *

- Tested on: Plasmodium berghei
- METHOD_SUMMARY: Screen against P. berghei liver stage (PbLuc), transformed with Luciferase, at 10uM
- Type: functional, HepG2
- APPLIED_CONDITIONS: tested at 10 uM
Among all 69,000 compounds or so, about 8,600 (12%) showed an effect of 50% or more. Only a selection was taken, and strong results are over-represented in it overall.
Values of INHIBITION strictly less than 40% map to label 1, and values of at least 40% map to label 0.

Below are worked cases with known answers.
{"COMPOUND": "COCCOC1CCN(C(=O)NCc2cc(C)oc2C)CC1", "ASSIGNED_CATEGORY": "label 0"}
{"COMPOUND": "Cc1csc(CCNC(=O)N2CCC(C(N)=O)CC2)n1", "ASSIGNED_CATEGORY": "label 1"}

input: Input C/C(Cl)=C/CNC(=O)C1CCC2(CC1)CN(C)C(=O)c1ccccc1O2 (centres undefined) ; condition: INHIBITION strictly below 40%. Does it hold?
output: label 1

input: Input Cc1cnn(CC2CCCN2C(=O)CCc2c(C)nc(C)[nH]c2=O)c1 (centres undefined) ; condition: INHIBITION strictly below 40%. Does it hold?
output: label 1

input: Input Cc1cc(CNC(=O)N2CCN(C(C)c3cccnc3)CC2)c(C)o1 (centres undefined) ; condition: INHIBITION strictly below 40%. Does it hold?
output: label 1

input: Input Cc1noc(C)c1CN(C)C(=O)Nc1cnn(CC2CCCO2)c1 (centres undefined) ; condition: INHIBITION strictly below 40%. Does it hold?
output: label 1

input: Input CNc1cc(-c2cccc(CN)c2)c2cc[nH]c2n1 ; condition: INHIBITION strictly below 40%. Does it hold?
output: label 1

input: Input COCCOC1CCN(C(=O)NCc2coc3ccccc23)CC1 ; condition: INHIBITION strictly below 40%. Does it hold?
output: label 0

input: Input CC(C)c1ccc(OCCNC(=O)c2ccoc2)cc1 ; condition: INHIBITION strictly below 40%. Does it hold?
output: label 0
